// provenance: paper PMC10778198

# test protocol: plasma pharmacokinetics by LC-MS/MS in patients
# Format: in vivo, human
# measurement context: human, plasma, oral, 300 mg, 300-mg 5:2, Cycle 1 Day 15, median; read-out: t1/2 of OKI-179 (converted)
measured metric: half-life (h)
Express it in h; write the number only.

Data request, read-out half-life, for CC(C)[C@H](N)C(=O)SCC/C=C/[C@@H]1CC(=O)NCc2nc(cs2)C(=O)NC(C)(C)C(=O)N[C@@H](C(C)C)C(=O)O1 [OKI-179, Bocodepsin]
1.74

====

# test protocol: plasma pharmacokinetics by LC-MS/MS in patients
# Assay type: in vivo, human
# measurement context: human, plasma, oral, 300 mg, OKI-179 300-mg 5:2, Cycle 1 Day 15, median; read-out: t1/2 of OKI-006 (Free) (converted)
measured metric: half-life (h)
Report the value in h with no unit label.

For CC(C)[C@@H]1NC(=O)C(C)(C)NC(=O)c2csc(n2)CNC(=O)C[C@@H](/C=C/CCS)OC1=O , what is its reported half-life?
3.43

====

# test protocol: plasma pharmacokinetics by LC-MS/MS in patients
# Assay type: in vivo, human
# measurement context: human, plasma, oral, 300 mg, 300 mg 5:2 cohort, mean single-dose, plasma; read-out: AUClast of OKI-179
measured metric: AUC(0-t) (ng·h/mL)
Number in ng·h/mL, nothing else.

Requested read-out: AUC(0-t). Entry: CC(C)[C@H](N)C(=O)SCC/C=C/[C@@H]1CC(=O)NCc2nc(cs2)C(=O)NC(C)(C)C(=O)N[C@@H](C(C)C)C(=O)O1
253

====

# test protocol: plasma pharmacokinetics by LC-MS/MS in patients
# Assay type: in vivo, human
# measurement context: human, plasma, oral, 300 mg, OKI-179 300-mg 5:2, Cycle 1 Day 15, median; read-out: Tmax of OKI-006 (Free)
measured metric: Tmax (min)
Numbers only; they are read as min.

Reported Tmax for CC(C)[C@@H]1NC(=O)C(C)(C)NC(=O)c2csc(n2)CNC(=O)C[C@@H](/C=C/CCS)OC1=O : what is it?
56

====

# test protocol: plasma pharmacokinetics by LC-MS/MS in patients
# Type: in vivo, human
# measurement context: human, plasma, oral, 300 mg, 300-mg 5:2, Cycle 1 Day 1, geometric mean; read-out: AUClast of OKI-179
measured metric: AUC(0-t)
Please provide the amount together with its unit, number first.

Can you look up the measured AUC(0-t) of CC(C)[C@H](N)C(=O)SCC/C=C/[C@@H]1CC(=O)NCc2nc(cs2)C(=O)NC(C)(C)C(=O)N[C@@H](C(C)C)C(=O)O1 [OKI-179, Bocodepsin] for me?
253 ng·h/mL

====

# test protocol: plasma pharmacokinetics by LC-MS/MS in patients
# Type: in vivo, human
# measurement context: human, plasma, oral, 300 mg, 300-mg 5:2, Cycle 1 Day 15, median; read-out: Tmax of OKI-179
measured metric: Tmax (min)
Numbers only here, please. The scale is min.

Query (molecule): CC(C)[C@H](N)C(=O)SCC/C=C/[C@@H]1CC(=O)NCc2nc(cs2)C(=O)NC(C)(C)C(=O)N[C@@H](C(C)C)C(=O)O1 ; field requested: Tmax
56

====

# test protocol: plasma pharmacokinetics by LC-MS/MS in patients
# Assay type: in vivo, human
# measurement context: human, plasma, oral, 300 mg, OKI-179 300-mg 5:2, Cycle 1 Day 1, median; read-out: Tmax of OKI-006 (Free)
# Experimental: Blood samples were collected immediately prior to the first dose on cycle 1 and day 1, and then at 0.25, 0.5, 1, 2, 4, 8, and 24 h after taking OKI-179 on days 1 and 15. […] Plasma concentrations of OKI-179 and OKI-006 were analyzed using validated liquid chromatography-mass spectrometry (LC-MS/MS) (Quintara Discovery Inc., Hayward, CA, USA). […] The AUClast was calculated from time zero to the time of the last quantifiable concentration for OKI-179, free OKI-006, and total OKI-006.
measured metric: Tmax (min)
Output spec: scalar in min, unitless text.

Using the record for CC(C)[C@@H]1NC(=O)C(C)(C)NC(=O)c2csc(n2)CNC(=O)C[C@@H](/C=C/CCS)OC1=O [OKI-006] , report its Tmax.
41.5
